Target: Dual specificity mitogen-activated protein kinase kinase 6 (Homo sapiens) (UniProt P52564)
Sequence (whole entry): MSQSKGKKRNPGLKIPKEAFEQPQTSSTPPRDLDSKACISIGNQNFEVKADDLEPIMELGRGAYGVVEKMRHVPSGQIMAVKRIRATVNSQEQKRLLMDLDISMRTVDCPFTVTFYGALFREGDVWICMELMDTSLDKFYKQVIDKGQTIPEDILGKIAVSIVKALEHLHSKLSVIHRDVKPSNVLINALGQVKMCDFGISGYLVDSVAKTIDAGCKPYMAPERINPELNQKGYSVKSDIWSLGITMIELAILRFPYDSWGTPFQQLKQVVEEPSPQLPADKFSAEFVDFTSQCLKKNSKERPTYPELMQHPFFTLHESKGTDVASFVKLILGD
Experiment: Inhibition of human MKK6 at 1 uM relative to control; values are per cent of control
Readout Label: residual activity

> print(dat)
                                 cpd.smiles   val
1  CN(C)c1cc2cc(n1)CCCn1cc(c3ccccc31)C1=C(C(=O)NC1=O)c1cn(c3ccccc13)CCC2   86%
2  CN(C)c1nc2ccc1CCCn1cc(c3ccccc31)C1=C(C(=O)NC1=O)c1cn(c3ccccc13)CC2  102%
3  O=C1NC(=O)C2=C1c1cn(c3ccccc13)CCCc1ccc(c(N3CCCC3)n1)CCCn1cc2c2ccccc21   85%
4  O=C1NC(=O)C2=C1c1cn(c3ccccc13)CCCc1cc(nc(N3CCCC3)c1)CCCn1cc2c2ccccc21   91%
